Source of measurements: the Immune Epitope Database (IEDB)

Target: HLA-A*11:01
Experiment: IEDB peptide-MHC binding, purified MHC/competitive/fluorescence; filed as Kd, often an IC50 or EC50 that approximates it; bounds were set here for any values at or beyond the usual limits of such assays
Settings: source organism: Rickettsia bellii OSU 85-389
parameter: Kd

Could you tell me which Kd is on file for EDFEIFYNL ?
≥ 5 µM

* * *

Molecular target: HLA-A*29:02
Test: IEDB peptide-MHC binding, purified MHC/direct/fluorescence; filed as Kd, often an IC50 or EC50 that approximates it; bounds were set here for any values at or beyond the usual limits of such assays
Conditions: source organism: Influenza A virus (A/Hong Kong/507/97(H5N1))
pKd: −log10 of the molar value.
parameter: pKd

Could you tell me which pKd is on file for LAKSVFNSL ?
≤ 4.70
